Target: T1, human 5T4-His protein (human, UniProt Q13641 32-355)
T1 construct: also called recombinant 5T4 protein (human 5T4-his tag); human 5T4 protein; not shown: His tag
T1 sequence (looked up): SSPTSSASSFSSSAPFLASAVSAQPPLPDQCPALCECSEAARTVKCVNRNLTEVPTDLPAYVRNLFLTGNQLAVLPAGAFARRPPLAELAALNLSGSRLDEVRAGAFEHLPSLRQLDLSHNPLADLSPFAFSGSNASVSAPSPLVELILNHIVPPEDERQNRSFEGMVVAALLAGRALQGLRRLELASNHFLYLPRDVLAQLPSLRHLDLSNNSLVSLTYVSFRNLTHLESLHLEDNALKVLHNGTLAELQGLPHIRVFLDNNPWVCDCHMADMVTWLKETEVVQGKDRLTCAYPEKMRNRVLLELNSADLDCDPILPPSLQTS
Test: SPR Biacore, Protein A capture
Measured quantity: koff
Remember to quote the unit after the number.

Take a look at these entries with their results.
>  <Binder>
393E9_hVH4_hVL5 (antibody, V domains shown, humanized; also called Hu393E9-45) VH: EVQLVESGGGLVQPGGSLRLSCAASGFTFTDYYMSWVRQAPGKGLEWVGFIRNKGNGYTTENSASVKGRFTISRDNSKSSLYLQMNSLKTEDTAVYYCARYRGNPHYAMDYWGQGTLVTVSS VL: EIVLTQSPGTLSLSPGERATLSCRASESVEFYGTSFLQWYQQKPGQAPRLLIYGASNVESGIPDRFSGSGSGTDFTLTISRLEPEDIAVYFCQQSRKVPSTFGGGTKVEIK

>  <Measured quantity>
koff

>  <Observed value>
0.000129 s⁻¹

$$$$
>  <Binder>
393E9_hVH5_hVL3 (antibody, V domains shown, humanized; also called Hu393E9-53) VH: EVQLVESGGGLVQPGRSLRLSCTASGFTFTDYYMSWVRQAPGKGLEWVGFIRNKGNGYTTENSASVKGRFTISRDNSKSILYLQMNSLKTEDTAVYYCARYRGNPHYAMDYWGQGTLVTVSS VL: DIQLTQSPSSLSASVGDRVTITCRASESVEFYGTSFLQWYQQKPGKAPKLLIYGASNVESGVPSRFSGSGSGTDFTLTISSLQPEDIATYFCQQSRKVPSTFGGGTKVEIK

>  <Measured quantity>
koff

>  <Observed value>
0.000119 s⁻¹

$$$$
>  <Binder>
393E9_hVH6_hVL3 (antibody, V domains shown, humanized) VH: EVQLVESGGGLVQPGGSLRLSCAASGFTFTDYYMSWVRQAPGKGLEWVGFIRNKGNGYTTENSASVKGRFTISRDNAKSSLYLQMNSLRAEDTAVYYCARYRGNPHYAMDYWGQGTLVTVSS VL: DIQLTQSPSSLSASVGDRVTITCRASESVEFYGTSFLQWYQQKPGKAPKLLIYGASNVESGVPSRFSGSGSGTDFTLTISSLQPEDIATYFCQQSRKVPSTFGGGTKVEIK

>  <Measured quantity>
koff

>  <Observed value>
0.000124 s⁻¹

$$$$
>  <Binder>
393E9_hVH1_hVL5 (antibody, V domains shown, humanized) VH: EVQLVESGGGLVQPGGSLRLSCAASGFTFTDYYMSWVRQAPGKGLEWVGFIRNKGNGYTTENSASVKGRFTISRDNSKSTLYLQMNSLRAEDTAVYYCARYRGNPHYAMDYWGQGTLVTVSS VL: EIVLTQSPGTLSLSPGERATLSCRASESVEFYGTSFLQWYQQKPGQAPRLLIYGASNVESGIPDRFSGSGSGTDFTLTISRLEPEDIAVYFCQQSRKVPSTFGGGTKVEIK

>  <Measured quantity>
koff

>  <Observed value>
0.000112 s⁻¹

$$$$
>  <Binder>
393E9_hVH5_hVL5 (antibody, V domains shown, humanized) VH: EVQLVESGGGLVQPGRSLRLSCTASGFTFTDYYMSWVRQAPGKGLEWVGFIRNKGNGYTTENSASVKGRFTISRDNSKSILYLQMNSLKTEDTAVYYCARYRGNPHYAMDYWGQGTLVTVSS VL: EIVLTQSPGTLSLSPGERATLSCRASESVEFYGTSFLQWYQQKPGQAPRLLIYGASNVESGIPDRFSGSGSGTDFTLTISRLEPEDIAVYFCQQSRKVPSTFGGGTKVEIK

>  <Measured quantity>
koff

>  <Observed value>
0.000121 s⁻¹

$$$$
>  <Binder>
393E9_hVH2_hVL3 (antibody, V domains shown, humanized) VH: EVQLVESGGGLIQPGGSLRLSCAASGFTFTDYYMSWVRQPPGKGLEWVGFIRNKGNGYTTENSASVKGRFTISRDNSKSTLYLQMNSLRAEDTAVYYCARYRGNPHYAMDYWGQGTLVTVSS VL: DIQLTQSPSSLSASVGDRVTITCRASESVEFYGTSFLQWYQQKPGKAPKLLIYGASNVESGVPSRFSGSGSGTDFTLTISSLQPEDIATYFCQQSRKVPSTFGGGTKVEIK

>  <Measured quantity>
koff

>  <Observed value>
0.00012 s⁻¹

$$$$
>  <Binder>
393E9_hVH3_hVL1 (antibody, V domains shown, humanized) VH: QVQLVESGGGVVQPGGSLRLSCAASGFTFTDYYMSWVRQAPGKGLEWVGFIRNKGNGYTTENSASVKGRFTISRDNSKSTLYLQMNSLRAEDTAVYYCARYRGNPHYAMDYWGQGTLVTVSS VL: DIVLTQSPDSLAVSLGERATINCRASESVEFYGTSFLQWYQQKPGQPPKLLIYGASNVESGVPDRFSGSGSGTDFTLTISSLQAEDIAVYFCQQSRKVPSTFGGGTKVEIK

>  <Measured quantity>
koff

>  <Observed value>
0.000108 s⁻¹

$$$$
>  <Binder>
393E9_hVH3_hVL5 (antibody, V domains shown, humanized) VH: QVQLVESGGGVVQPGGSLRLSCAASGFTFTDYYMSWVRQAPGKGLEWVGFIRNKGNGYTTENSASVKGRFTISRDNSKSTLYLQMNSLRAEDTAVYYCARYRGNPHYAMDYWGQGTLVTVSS VL: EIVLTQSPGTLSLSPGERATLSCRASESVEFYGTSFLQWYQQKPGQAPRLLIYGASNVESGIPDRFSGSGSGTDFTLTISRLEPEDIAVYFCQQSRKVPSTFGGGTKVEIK

>  <Measured quantity>
koff

>  <Observed value>
0.00012 s⁻¹

$$$$
>  <Binder>
393E9_hVH3_hVL4 (antibody, V domains shown, humanized) VH: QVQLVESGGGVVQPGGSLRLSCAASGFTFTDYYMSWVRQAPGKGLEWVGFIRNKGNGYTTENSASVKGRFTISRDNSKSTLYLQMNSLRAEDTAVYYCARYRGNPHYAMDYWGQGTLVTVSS VL: DIVLTQSPLSLPVTPGEPASISCRASESVEFYGTSFLQWYLQKPGQSPQLLIYGASNVESGVPDRFSGSGSGTDFTLKISRVEAEDIGVYFCQQSRKVPSTFGGGTKVEIK

>  <Measured quantity>
koff

>  <Observed value>
0.000123 s⁻¹

$$$$

Attention now turns to another entry.
Provide one value: measured koff of 393E9_hVH3_hVL3 (antibody, V domains shown, humanized) VH: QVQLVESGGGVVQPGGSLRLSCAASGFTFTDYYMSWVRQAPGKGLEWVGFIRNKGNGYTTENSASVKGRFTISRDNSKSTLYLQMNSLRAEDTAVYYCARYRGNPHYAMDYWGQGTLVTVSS VL: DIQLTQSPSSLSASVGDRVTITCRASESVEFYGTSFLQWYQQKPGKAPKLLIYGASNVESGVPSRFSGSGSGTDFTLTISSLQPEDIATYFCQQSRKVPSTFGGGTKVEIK
0.000111 s⁻¹
